# Procedure Details: NCI Yeast Anticancer Drug Screen. Data for the mlh1 rad18 strain (AID 175)
# Settings: S. cerevisiae mlh1 rad18 strain growth inhibition; at 50.0 µM; active compounds read high
About 79,000 compounds went through this panel and 15% of them were active in at least one assay; those are over-represented in the sample as a whole. Activity calls are given as the source filed them. No stated cut-off is given here; in the data, active means growth inhibition above about 70%; inactive means the rest.

{"Compound": "CCOC(=O)C(=CNC(=S)c1ccncc1)C(=O)OCC", "growth inhibition": "-36% (inactive)"}
{"Compound": "O=c1[nH]c(=O)n(C2CC(O)C(CO)O2)cc1OCC1CCCCC1 (stereo unspecified)", "growth inhibition": "-19.9% (inactive)"}
{"Compound": "O=C1C/C(=C/c2ccccc2[N+](=O)[O-])C(=O)N1c1ccccc1", "growth inhibition": "11.2% (inactive)"}
{"Compound": "Cc1nc(Nc2ccc(Cl)c(Cl)c2)sc1C(/C=C/c1ccc2c(c1)OCO2)=N/Nc1ccc([N+](=O)[O-])cc1[N+](=O)[O-]", "growth inhibition": "2.45% (inactive)"}
{"Compound": "CCCCCCC(=O)/C=C/c1cc(Cl)cc(Cl)c1OCOC", "growth inhibition": "5.6% (inactive)"}
{"Compound": "CC1Cc2ccccc2C2=C3CC=CCC3C3C(=O)OC(=O)C3C21 (stereo unspecified)", "growth inhibition": "7.65% (inactive)"}
{"Compound": "CCN(CC)CCC(=O)Nc1cc(OC)cc2cccnc12", "growth inhibition": "-8.1% (inactive)"}
{"Compound": "Cc1c(C(=O)CC(=O)C(=O)Nc2ccc(Cl)cc2)[n+](=O)c2ccccc2n1[O-]", "growth inhibition": "-0.3% (inactive)"}
{"Compound": "O=C(NCc1ccc(Cl)c(Cl)c1)Nc1ccccc1Cl", "growth inhibition": "17.9% (inactive)"}
{"Compound": "CCOc1ccc(N)c([N+](=O)[O-])c1", "growth inhibition": "3.1% (inactive)"}
{"Compound": "CCOC(=O)/C(O)=C/c1nc2ccccc2nc1C", "growth inhibition": "14.7% (inactive)"}
